As an illustration, consider measured IC50 for compounds on Epidermal growth factor receptor (Homo sapiens, UniProt P00533, L858R/T790M).
Sequence (P00533 25-1210 T790M/L858R limits assumed): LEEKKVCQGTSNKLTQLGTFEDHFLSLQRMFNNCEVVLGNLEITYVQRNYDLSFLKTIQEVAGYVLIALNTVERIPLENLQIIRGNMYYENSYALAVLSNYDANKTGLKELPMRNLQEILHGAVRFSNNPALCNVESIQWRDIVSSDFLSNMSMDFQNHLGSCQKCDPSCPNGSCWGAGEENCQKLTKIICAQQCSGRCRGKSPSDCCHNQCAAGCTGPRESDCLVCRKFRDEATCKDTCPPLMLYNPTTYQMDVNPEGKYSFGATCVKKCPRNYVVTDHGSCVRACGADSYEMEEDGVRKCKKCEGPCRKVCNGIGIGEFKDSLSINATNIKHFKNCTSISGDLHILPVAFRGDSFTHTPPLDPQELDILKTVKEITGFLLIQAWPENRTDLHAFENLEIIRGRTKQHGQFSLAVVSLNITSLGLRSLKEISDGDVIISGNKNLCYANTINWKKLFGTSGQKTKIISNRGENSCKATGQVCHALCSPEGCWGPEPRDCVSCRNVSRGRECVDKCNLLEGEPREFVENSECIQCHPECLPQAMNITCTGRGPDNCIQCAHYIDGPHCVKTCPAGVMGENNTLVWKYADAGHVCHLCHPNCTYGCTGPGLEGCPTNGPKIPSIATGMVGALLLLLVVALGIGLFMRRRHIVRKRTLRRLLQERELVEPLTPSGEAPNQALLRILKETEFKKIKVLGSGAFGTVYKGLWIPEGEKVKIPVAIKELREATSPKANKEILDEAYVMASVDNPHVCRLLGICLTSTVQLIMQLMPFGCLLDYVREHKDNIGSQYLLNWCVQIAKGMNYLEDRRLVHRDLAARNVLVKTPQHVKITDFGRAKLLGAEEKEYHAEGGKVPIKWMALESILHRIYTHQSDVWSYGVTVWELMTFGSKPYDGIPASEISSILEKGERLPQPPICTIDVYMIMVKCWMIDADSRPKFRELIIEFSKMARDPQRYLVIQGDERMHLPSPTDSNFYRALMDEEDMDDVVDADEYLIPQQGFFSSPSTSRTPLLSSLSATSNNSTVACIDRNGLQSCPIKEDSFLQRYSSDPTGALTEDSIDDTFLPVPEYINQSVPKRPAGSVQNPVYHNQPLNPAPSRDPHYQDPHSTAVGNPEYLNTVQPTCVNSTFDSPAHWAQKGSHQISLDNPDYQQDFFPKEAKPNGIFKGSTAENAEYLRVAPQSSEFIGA
# number only, unit nM dropped from output

// worked examples, IC50 included
> print(dat)
                                   compound  endpoint.label  quantitative.result
1  CN(C)C/C=C/C(=O)N1CCc2c(sc3ncnc(NC(CO)Cc4ccccc4)c23)C1 (single isomer, unassigned)            IC50                 4110
2  O=C(/C=C/CN1CCOCC1)N1CCc2c(sc3ncnc(NC(CO)c4ccccc4)c23)C1 (single isomer, unassigned)            IC50                 1400
3  CCN(CC)C/C=C/C(=O)N1CCc2c(sc3ncnc(NC(CO)c4ccccc4)c23)C1 (single isomer, unassigned)            IC50                  930
4  C=CC(=O)N1CCc2c(sc3ncnc(N[C@H](C)c4ccccc4)c23)C1            IC50                  739
5  C[C@@H](Nc1ncnc2sc3c(c12)CCN(C(=O)/C=C/CN(C)C)C3)c1ccccc1            IC50                  596
6  CN(C)C/C=C/C(=O)N1CCc2c(sc3ncnc(N[C@H](CO)c4ccccc4)c23)C1            IC50                  305
7  C=CC(=O)N1CCc2c(sc3ncnc(N[C@H](CO)c4ccccc4)c23)C1            IC50                  100
8  C=CS(=O)(=O)N1CCc2c(sc3ncnc(N[C@H](CO)c4ccccc4)c23)C1            IC50                 2480

# assay system Epidermal growth factor receptor (Homo sapiens, UniProt P00533, L858R/T790M): give IC50 of C=CC(=O)N1CCc2c(sc3ncnc(N[C@H](CC)c4ccccc4)c23)C1
2200

----------
As an illustration, consider measured log10 IC50 for molecules on UniProtKB P00533.
// stored as log10 of IC50 expressed in µM

// worked examples, log10 IC50 included
> print(dat)
                                   molecule  quantitative.result
1  C=CC(=O)N1CCc2c(sc3ncnc(N[C@H](C)c4ccccc4)c23)C1                -1.70
2  OC[C@@H](Nc1ncnc2sc3c(c12)CCCC3)c1ccccc1                -0.14
3   OC[C@@H](Nc1ncnc2sc3c(c12)CCC3)c1ccccc1                 0.04

# assay system UniProtKB P00533: give log10 IC50 of C=CC(=O)N1CCc2c(sc3ncnc(N[C@H](CO)c4ccccc4)c23)C1
-2.10

# assay system UniProtKB P00533: give log10 IC50 of C[C@@H](Nc1ncnc2sc3c(c12)CCN(C(=O)/C=C/CN(C)C)C3)c1ccccc1
-1.92

# assay system UniProtKB P00533: give log10 IC50 of CC#CC(=O)N1CCc2c(sc3ncnc(N[C@H](CO)c4ccccc4)c23)C1
0.10

----------
molecular target: Epidermal growth factor receptor (Homo sapiens); settings: 20 uM
Description: Inhibition of EGFR at 20 uM
# label = true (1) if inhibition >= 40% else false (0)

# example entries with known answers
> print(dat)
                       compound.string                              assay.target  discrete.label
1   c1ccc(CCNc2ncnc3sc4c(c23)CCCC4)cc1  Epidermal growth factor receptor (Homo sapiens)        true (1)
2     c1ccc(CNc2ncnc3sc4c(c23)CCC4)cc1  Epidermal growth factor receptor (Homo sapiens)        true (1)
3   Fc1ccc(CNc2ncnc3sc4c(c23)CCCC4)cc1  Epidermal growth factor receptor (Homo sapiens)        true (1)
4  COc1ccc(CNc2ncnc3sc4c(c23)CCCC4)cc1  Epidermal growth factor receptor (Homo sapiens)       false (0)

Please turn your attention to the following entry.
Determine whether measured inhibition meets or exceeds 40% for c1ccc(CNc2ncnc3sc4c(c23)CCCC4)cc1
true (1)
